The reported measurements were obtained from patent US20240376097A1.

test: Metabolic Stability Study, liver microsome incubation (mouse); assay type: in vitro ADME; conditions: mouse liver microsomes 0.5 mg/mL, 1 μM compound, NADPH; read-out: CLint (μL × min^−1 × mg^−1) mouse
Entries whose microsomal CLint at 1 μM is below 6 µL/min/mg take satisfied; entries at or above 6 µL/min/mg take not satisfied.

[[record]]
compound = "COc1cc(CN2CCN(C3CC4(CCN(c5ccc(C(=O)NS(=O)(=O)c6ccc(NC[C@H]7CC[C@](C)(O)CC7)c([N+](=O)[O-])c6)c(Oc6cnc7[nH]ccc7c6)c5)CC4)C3)C(c3ccccc3C(C)C)C2)cc(OC)c1 (some centres unmarked) [Example 49]"
categorylabel = "not satisfied"

[[record]]
compound = "CC(C)c1ccccc1[C@@H]1CN(Cc2cccc3c2OCCO3)CCN1C1CC2(CCN(c3ccc(C(=O)NS(=O)(=O)c4ccc(NC[C@H]5CC[C@](C)(O)CC5)c([N+](=O)[O-])c4)c(Oc4cnc5[nH]ccc5c4)c3)CC2)C1 [Example 79a]"
categorylabel = "not satisfied"

[[record]]
compound = "COc1ccc(CN2CCN(C3CC4(CCN(c5ccc(C(=O)NS(=O)(=O)c6ccc(NC[C@H]7CC[C@](C)(O)CC7)c([N+](=O)[O-])c6)c(Oc6cnc7[nH]ccc7c6)c5)CC4)C3)C(c3ccccc3C(C)C)C2)cc1 (some centres unmarked) [Example 19]"
categorylabel = "satisfied"

[[record]]
compound = "COc1cc(CN2CCN(C3CC4(CCN(c5ccc(C(=O)NS(=O)(=O)c6ccc(NC[C@H]7CC[C@](C)(O)CC7)c([N+](=O)[O-])c6)c(Oc6cnc7[nH]ccc7c6)c5)CC4)C3)[C@H](c3ccccc3C(C)C)C2)ccc1C1CC1 [Example 257]"
categorylabel = "satisfied"

[[record]]
compound = "COc1cc(CN2CCN(C3CC4(C3)CN(c3ccc(C(=O)NS(=O)(=O)c5ccc(NC[C@H]6CC[C@](C)(O)CC6)c([N+](=O)[O-])c5)c(Oc5cnc6[nH]ccc6c5)c3)C4)[C@H](c3ccccc3C(C)C)C2)ccc1C1CC1 [Example 233]"
categorylabel = "satisfied"

[[record]]
compound = "COc1cc(CN2CCN(C3CC4(C3)CN(c3ccc(C(=O)NS(=O)(=O)c5ccc(NC[C@H]6CC[C@](C)(O)CC6)c([N+](=O)[O-])c5)c(Oc5cnc6[nH]cc(F)c6c5)c3)C4)[C@H](c3ccccc3C(C)C)C2)cc2c1OCCC2 [Example 312]"
categorylabel = "satisfied"

[[record]]
compound = "COc1ccc(CN2CCN(C3CC4(C3)CN(c3ccc(C(=O)NS(=O)(=O)c5ccc(NC[C@H]6CC[C@](C)(O)CC6)c([N+](=O)[O-])c5)c(Oc5cnc6[nH]cc(F)c6c5)c3)C4)[C@H](c3ccccc3C(C)C)C2)cc1OC [Example 141a]"
categorylabel = "satisfied"

[[record]]
compound = "COc1cc(CN2CCN(C3CC4(CCN(c5ccc(C(=O)NS(=O)(=O)c6ccc(NC[C@H]7CC[C@](C)(O)CC7)c([N+](=O)[O-])c6)c(Oc6cnc7[nH]cc(F)c7c6)c5)CC4)C3)[C@H](c3ccccc3C(C)C)C2)cc2ccoc12 [Example 281]"
categorylabel = "satisfied"


---

Parameter: IC50. Scope: all listed entries.
tested on: RS4;11 (BCL-2 dependent acute lymphoblastic leukemia cell line); experiment: RS4;11 Cell Proliferation Assay; type: cell-based; conditions: Homo sapiens, RS4-11, RS4;11 cells, read-out: Cellular proliferation assay (IC50, nM) RS4
observationType: IC50 (nM)

[[record]]
molecule = "Cc1ccc(CN2CCN(C3CC4(CCN(c5ccc(C(=O)NS(=O)(=O)c6ccc(NC[C@H]7CC[C@](C)(O)CC7)c([N+](=O)[O-])c6)c(Oc6cnc7[nH]ccc7c6)c5)CC4)C3)C(c3ccccc3C(C)C)C2)cc1 (stereo partly shown)"
numericresult = 0.53

[[record]]
molecule = "COc1cc(CN2CCN(C3CC4(C3)CN(c3ccc(C(=O)NS(=O)(=O)c5ccc(NC[C@H]6CC[C@](C)(O)CC6)c([N+](=O)[O-])c5)c(Oc5cnc6[nH]ccc6c5)c3)C4)[C@H](c3ccccc3C(C)C)C2)cc2c1OCC2(C)C"
numericresult = 0.24

[[record]]
molecule = "COc1ccc(CN2CCN(C3CC4(C3)CN(c3ccc(C(=O)NS(=O)(=O)c5ccc(NC[C@H]6CC[C@](C)(O)CC6)c([N+](=O)[O-])c5)c(Oc5cnc6[nH]cc(F)c6c5)c3)C4)[C@H](c3ccccc3C(C)C)C2)cn1"
numericresult = 0.11

[[record]]
molecule = "COc1ccc(CN2CCN(C3CC4(CCN(c5ccc(C(=O)NS(=O)(=O)c6ccc(NCC7CCOCC7)c([N+](=O)[O-])c6)c(Oc6cnc7[nH]ccc7c6)c5)CC4)C3)[C@H](c3ccccc3C(C)C)C2)cc1 (single isomer, unassigned)"
numericresult = 0.47


---

target: Recombinant human Bcl-2 protein (Homo sapiens (Human), UniProt P10415); assay: Bcl-2 TR-FRET Assay; format: binding; details: wild type Bcl-2; unit inferred; read-out: Bcl-2 WT
Sequence (P10415 whole entry): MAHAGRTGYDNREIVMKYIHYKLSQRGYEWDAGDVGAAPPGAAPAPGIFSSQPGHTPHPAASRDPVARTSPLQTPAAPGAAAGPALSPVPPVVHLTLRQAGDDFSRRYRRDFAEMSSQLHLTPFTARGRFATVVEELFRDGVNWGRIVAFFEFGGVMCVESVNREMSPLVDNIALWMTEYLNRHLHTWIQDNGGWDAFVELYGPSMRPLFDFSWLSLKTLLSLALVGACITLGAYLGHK
observationType: IC50 (nM)

[[record]]
compound = "CC(C)c1ccccc1C1CN(Cc2ccc(OC(F)(F)F)cc2)CCN1C1CC2(CCN(c3ccc(C(=O)NS(=O)(=O)c4ccc(NC[C@H]5CC[C@](C)(O)CC5)c([N+](=O)[O-])c4)c(Oc4cnc5[nH]ccc5c4)c3)CC2)C1 (some centres unmarked)"
observationtype = "IC50"
unitabbrev = "nM"
numericresult = 1.1

[[record]]
compound = "CC(C)c1ccccc1C1CN(CC23CC(C2)C3)CCN1C1CC2(CCN(c3ccc(C(=O)NS(=O)(=O)c4ccc(NC[C@H]5CC[C@](C)(O)CC5)c([N+](=O)[O-])c4)c(Oc4cnc5[nH]ccc5c4)c3)CC2)C1 (some centres unmarked)"
observationtype = "IC50"
unitabbrev = "nM"
numericresult = 0.079


---

test system: RS4;11 (BCL-2 dependent acute lymphoblastic leukemia cell line); experiment: RS4;11 Cell Proliferation Assay; assay type: cell-based; conditions: Homo sapiens, RS4-11, RS4;11 cells, read-out: Cellular proliferation assay (IC50, nM) RS4
observationType: IC50 (nM)

[[record]]
molecule = "COc1ccc(CN2CCN(C3CC4(CCN(c5ccc(C(=O)NS(=O)(=O)c6ccc(NCC7(F)CCC(C)(O)CC7)c([N+](=O)[O-])c6)c(Oc6cnc7[nH]ccc7c6)c5)CC4)C3)[C@H](c3ccccc3C(C)C)C2)cc1 (stereo partly shown)"
testsystem = "RS4;11 (BCL-2 dependent acute lymphoblastic leukemia cell line)"
observationtype = "IC50"
numericresult = 0.13

[[record]]
molecule = "CC(C)c1ccccc1C1CN(Cc2cccc3occc23)CCN1C1CC2(CCN(c3ccc(C(=O)NS(=O)(=O)c4ccc(NC[C@H]5CC[C@](C)(O)CC5)c([N+](=O)[O-])c4)c(Oc4cnc5[nH]ccc5c4)c3)CC2)C1 (stereo partly shown)"
testsystem = "RS4;11 (BCL-2 dependent acute lymphoblastic leukemia cell line)"
observationtype = "IC50"
numericresult = 0.32

[[record]]
molecule = "COc1cc(CN2CCN(C3CC4(CCN(c5ccc(C(=O)NS(=O)(=O)c6ccc(NC[C@H]7CC[C@](C)(O)CC7)c([N+](=O)[O-])c6)c(Oc6cnc7[nH]cc(Cl)c7c6)c5)CC4)C3)[C@H](c3ccccc3C(C)C)C2)ccc1C1CC1"
testsystem = "RS4;11 (BCL-2 dependent acute lymphoblastic leukemia cell line)"
observationtype = "IC50"
numericresult = 0.26

[[record]]
molecule = "CCN1CCN(C2CC3(CCN(c4ccc(C(=O)NS(=O)(=O)c5ccc(NC[C@H]6CC[C@](C)(O)CC6)c([N+](=O)[O-])c5)c(Oc5cnc6[nH]ccc6c5)c4)CC3)C2)C(c2ccccc2C(C)C)C1 (stereo partly shown)"
testsystem = "RS4;11 (BCL-2 dependent acute lymphoblastic leukemia cell line)"
observationtype = "IC50"
numericresult = 0.53

